Source listed as patent US5475026A.

test: Acute Toxicity Test (Example 5); set-up: species or system rats; settings: rat, in vivo, iv, male, 14 days; parentheses: 95% reliable limit; Litchfield-Wilcoxon Method
property name: LD50 at 336 h (mg/kg)

1. CC#CCC(C)[C@H](O)/C=C/[C@@H]1[C@H]2c3cccc(CCCC(=O)O)c3O[C@H]2C[C@H]1O (relative stereo) ... 18

###

assay: Acute Toxicity Test (Example 5); parameters: species or system rats; conditions: rat, in vivo, po, female, 14 days; parentheses: 95% reliable limit; Litchfield-Wilcoxon Method
property name: LD50 at 336 h (mg/kg)

1) CC#CCC(C)[C@H](O)/C=C/[C@@H]1[C@H]2c3cccc(CCCC(=O)O)c3O[C@H]2C[C@H]1O (relative stereo) ... 12

###

experiment: Acute Toxicity Test (Example 5); design: species or system rats; conditions: rat, in vivo, sc, subcutaneous, male, 14 days; parentheses: 95% reliable limit; Litchfield-Wilcoxon Method
property name: LD50 at 336 h

1) CC#CCC(C)[C@H](O)/C=C/[C@@H]1[C@H]2c3cccc(CCCC(=O)O)c3O[C@H]2C[C@H]1O (relative stereo) [beraprost] ... 13 mg/kg

###

experiment: Acute Toxicity Test (Example 5); set-up: species or system rats; settings: rat, in vivo, iv, female, 14 days; parentheses: 95% reliable limit; Litchfield-Wilcoxon Method
property name: LD50 at 336 h (mg/kg)

1. CC#CCC(C)[C@H](O)/C=C/[C@@H]1[C@H]2c3cccc(CCCC(=O)O)c3O[C@H]2C[C@H]1O (relative stereo) ... 13

###

Assay: Acute Toxicity Test (Example 5)
Design: species or system rats
Conditions: rat, in vivo, sc, subcutaneous, female, 14 days; parentheses: 95% reliable limit; Litchfield-Wilcoxon Method
Method: Acute toxicity test was carried out using rats. *Litchfield-Wilcoxon Method (see J. Pharmacol. Expl. Therap. Vol. 96, p. The numbers in parentheses indicate 95% reliable limit.
property name: LD50 at 336 h

1) CC#CCC(C)[C@H](O)/C=C/[C@@H]1[C@H]2c3cccc(CCCC(=O)O)c3O[C@H]2C[C@H]1O (relative stereo) [beraprost] ... 7 mg/kg
